Where these numbers come from: the OligoGym collection

What target mRNA knockdown was measured for each of the following?
# measurement_setup: siRNA; note: test system not given here
HELM strings list units from the 5' end as sugar, base in round brackets, then linkage (d deoxyribose, r ribose, m 2'-O-methyl, p phosphodiester). Strings are as the collection lists them, not checked against the first reports. ss, as = sense and antisense strand; [lna] = locked nucleic acid (LNA); [s4r] = 4'-thioribose; [fl2r] = 2'-fluoro
State just the number; it will be interpreted in %.

Fill in: target mRNA knockdown of RNA1{m(G)p.r(A)p.m(U)p.r(A)p.m(C)p.r(U)p.m(U)p.r(C)p.m(U)p.r(G)p.m(G)p.r(U)p.m(U)p.r(C)p.m(C)p.r(C)p.m(U)p.r(C)p.m(C)p.r(T)p.r(T)}|RNA2{r(G)p.r(G)p.r(A)p.r(G)p.r(G)p.r(G)p.r(A)p.r(A)p.r(C)p.r(C)p.r(A)p.r(G)p.r(A)p.r(A)p.r(G)p.r(U)p.r(A)p.r(U)p.r(C)p.r(T)p.r(T)}$$$RNA1{StrandType:ss}|RNA2{StrandType:as}$ is ___
45

Any idea what target mRNA knockdown was measured for RNA1{r(G)p.r(C)p.r(U)p.r(U)p.r(C)p.r(G)p.r(G)p.r(A)p.r(A)p.r(A)p.r(C)p.[fl2r](U)p.[fl2r](G)p.r(G)p.r(A)p.[fl2r](C)p.r(A)p.r(U)p.r(C)p.r(T)p.r(T)}|RNA2{r(G)p.r(A)p.[fl2r](U)p.r(G)p.r(U)p.r(C)p.[fl2r](C)p.[fl2r](A)p.r(G)p.r(U)p.r(U)p.r(U)p.r(C)p.r(C)p.r(G)p.r(A)p.r(A)p.r(G)p.r(C)p.r(T)p.r(T)}$$$RNA1{StrandType:ss}|RNA2{StrandType:as}$ ?
87

Which value of target mRNA knockdown has been reported for RNA1{[s4r](A)p.[s4r](A)p.[s4r](A)p.[s4r](C)p.r(A)p.r(U)p.r(G)p.r(C)p.r(A)p.r(G)p.r(A)p.r(A)p.r(A)p.r(A)p.r(U)p.[s4r](G)p.[s4r](C)p.[s4r](U)p.[s4r](G)p.r(T)p.r(T)}|RNA2{r(C)p.r(A)p.r(G)p.r(C)p.r(A)p.r(U)p.r(U)p.r(U)p.r(U)p.r(C)p.r(U)p.r(G)p.r(C)p.r(A)p.r(U)p.r(G)p.r(U)p.[s4r](U)p.[s4r](U)p.r(T)p.r(T)}$$$RNA1{StrandType:ss}|RNA2{StrandType:as}$ in the records?
85.5

Using the record for RNA1{m(G)p.r(G)p.m(G)p.r(A)p.m(G)p.r(G)p.m(U)p.r(C)p.m(U)p.r(U)p.m(A)p.r(G)p.m(A)p.r(A)p.m(A)p.r(A)p.m(C)p.r(A)p.m(C)p.r(T)p.r(T)}|RNA2{r(G)p.r(U)p.r(G)p.r(U)p.r(U)p.r(U)p.r(U)p.r(C)p.r(U)p.r(A)p.r(A)p.r(G)p.r(A)p.r(C)p.r(C)p.r(U)p.r(C)p.r(C)p.r(C)p.r(T)p.r(T)}$$$RNA1{StrandType:ss}|RNA2{StrandType:as}$ , report its target mRNA knockdown.
17

Item RNA1{m(A)p.r(A)p.m(U)p.r(A)p.m(A)p.r(G)p.m(C)p.r(A)p.m(G)p.r(C)p.m(U)p.r(C)p.m(G)p.r(C)p.m(G)p.r(C)p.m(U)p.r(C)p.m(C)p.r(T)p.r(T)}|RNA2{r(G)p.r(G)p.m(A)p.r(G)p.r(C)p.r(G)p.r(C)p.r(G)p.m(A)p.r(G)p.r(C)p.r(U)p.r(G)p.r(C)p.r(U)p.r(U)p.m(A)p.r(U)p.r(U)p.r(T)p.r(T)}$$$RNA1{StrandType:ss}|RNA2{StrandType:as}$ has what recorded target mRNA knockdown?
32

Please give the measured target mRNA knockdown for this substance: RNA1{r(G)p.r(A)p.r(A)p.r(G)p.r(G)p.r(G)p.r(G)p.r(A)p.r(A)p.r(A)p.r(U)p.m(C)p.r(U)p.r(G)p.r(U)p.r(G)p.r(G)p.r(U)p.r(U)p.r(T)p.r(T)}|RNA2{r(A)p.r(A)p.r(C)p.m(C)p.r(A)p.r(C)p.r(A)p.r(G)p.r(A)p.r(U)p.r(U)p.r(U)p.r(C)p.r(C)p.r(C)p.r(C)p.r(U)p.r(U)p.r(C)p.r(T)p.r(T)}$$$RNA1{StrandType:ss}|RNA2{StrandType:as}$
65

# lookup: target mRNA knockdown of RNA1{r(C)p.r(C)p.r(G)p.r(C)p.r(C)p.r(C)p.r(G)p.r(G)p.r(C)p.r(G)p.r(G)p.r(C)p.m(G)p.r(C)p.r(C)p.r(U)p.r(U)p.m(U)p.m(A)p.r(T)p.r(T)}|RNA2{m(U)p.m(A)p.r(A)p.r(A)p.r(G)p.r(G)p.r(C)p.r(G)p.r(C)p.r(C)p.r(G)p.r(C)p.r(C)p.r(G)p.r(G)p.r(G)p.r(C)p.r(G)p.r(G)p.r(T)p.r(T)}$$$RNA1{StrandType:ss}|RNA2{StrandType:as}$
85

If you can, please state the reported target mRNA knockdown value of RNA1{r(U)p.m(U)p.r(A)p.m(C)p.r(A)p.r(A)p.r(A)p.r(G)p.r(G)p.m(A)p.r(U)p.r(C)p.r(U)p.r(C)p.r(C)p.r(U)p.r(C)p.r(C)p.r(C)p.r(T)p.r(T)}|RNA2{r(G)p.r(G)p.r(G)p.r(A)p.r(G)p.r(G)p.r(A)p.r(G)p.m(A)p.r(U)p.r(C)p.r(C)p.r(U)p.r(U)p.m(U)p.r(G)p.m(U)p.r(A)p.r(A)p.r(T)p.r(T)}$$$RNA1{StrandType:ss}|RNA2{StrandType:as}$ .
78

Find the recorded target mRNA knockdown belonging to RNA1{r(C)p.r(U)p.r(U)p.r(A)p.r(C)p.r(G)p.r(C)p.r(U)p.r(G)p.r(A)p.r(G)p.r(U)p.r(A)p.r(C)p.r(U)p.r(U)p.r(C)p.r(G)p.r(A)p.r(T)p.r(T)}|RNA2{r(U)p.r(C)p.r(G)p.r(A)p.r(A)p.r(G)p.r(U)p.r(A)p.r(C)p.r(U)p.r(C)p.r(A)p.r(G)p.r(C)p.r(G)p.[lna](U)p.r(A)p.r(A)p.r(G)p.r(T)p.r(T)}$$$RNA1{StrandType:ss}|RNA2{StrandType:as}$ and report it.
81
